B1: EPB41L3 (parent)
chain: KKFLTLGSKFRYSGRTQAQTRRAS

# Variants of: B1
# PROTOCOL_NOTES: protein stability index of a GFP-peptide fusion (GPS, HEK-293T) (PSI 1-6); higher = more stable;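 also: lentivirally expressed fusions sorted by FACS into six bins by GFP to DsRed ratio, PSI derived from sequencing read proportions per bin multiplied by bin number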
# CONDITION_CONTEXT: c terminus: a fixed tail appended

VARIANT_IDENTIFIER	protein stability index
G7K	2.37
F10Q	3.88
Q17T	2.38
Y12Q	3.82
Q19S	2.45
T5D	1.62
L4E	2.85
S13G	2.88
Q19R	3.03
R15A	3.32
G14A	3.42
R21W	2.85
S13D	2.85
A23H	3
R22M	1.75
L4S	2.91
L6S	2.52
R15S	2.53
G14M	3.71
